// reported response vs control in vivo at 10 mg/kg for each item listed
Tested on: absorption of sodium from the intestinal lumen
Experiment: Inhibition of intestinal sodium absorption: rat urinary sodium and fecal form 16 h post-dose
Format: in vivo, Sprague-Dawley rats
Conditions: oral gavage 10 mg/kg, urine 16 h post-dose, read-out: uNa Result, uNa (% of vehicle)

Completed entries (count: 4):
Given the entry CN(C)[C@H]1Cc2c(Cl)cc(Cl)cc2[C@@H]1Oc1ccc(S(=O)(=O)NCCOCCOCCNC(=O)[C@H](O)[C@@H](O)C(=O)NCCOCCOCCNS(=O)(=O)c2ccc(O[C@H]3c4cc(Cl)cc(Cl)c4C[C@@H]3N(C)C)cc2)cc1 [Example 5] , report its measured response vs control in vivo at 10 mg/kg.
< 35%

Given the entry O=C(NCCCCNC(=O)NCCOCCOCCNC(=O)Nc1cccc(O[C@H]2c3ccccc3C[C@@H]2N2CCCCC2)c1)NCCOCCOCCNC(=O)Nc1cccc(O[C@H]2c3ccccc3C[C@@H]2N2CCCCC2)c1 [Example 13] , report its measured response vs control in vivo at 10 mg/kg.
> 75%

Given the entry CN(C)[C@H]1Cc2c(Cl)cc(Cl)cc2[C@@H]1Oc1ccc(S(=O)(=O)NCCOCCOCCNC(=O)Nc2ccc(NC(=O)NCCOCCOCCNS(=O)(=O)c3ccc(O[C@H]4c5cc(Cl)cc(Cl)c5C[C@@H]4N(C)C)cc3)cc2)cc1 [Example 27] , report its measured response vs control in vivo at 10 mg/kg.
< 35%

Given the entry O=C(NCCOCCOCCOCCNS(=O)(=O)c1ccc(O[C@H]2c3ccccc3C[C@@H]2N2CCCCC2)cc1)c1cccc(C(=O)NCCOCCOCCOCCNS(=O)(=O)c2ccc(O[C@H]3c4ccccc4C[C@@H]3N3CCCCC3)cc2)c1 [Example 35] , report its measured response vs control in vivo at 10 mg/kg.
> 75%

Field: next compound
Given the entry CN(C)[C@H]1Cc2c(Cl)cc(Cl)cc2[C@@H]1Oc1ccc(S(=O)(=O)NCCOCCOCCNC(=O)NCCCCNC(=O)NCCOCCOCCNS(=O)(=O)c2ccc(O[C@H]3c4cc(Cl)cc(Cl)c4C[C@@H]3N(C)C)cc2)cc1 [Example 1] , report its measured response vs control in vivo at 10 mg/kg.
< 35%

* * *

Target: human NHE3 (Homo sapiens)
Sequence (P48764 26-834): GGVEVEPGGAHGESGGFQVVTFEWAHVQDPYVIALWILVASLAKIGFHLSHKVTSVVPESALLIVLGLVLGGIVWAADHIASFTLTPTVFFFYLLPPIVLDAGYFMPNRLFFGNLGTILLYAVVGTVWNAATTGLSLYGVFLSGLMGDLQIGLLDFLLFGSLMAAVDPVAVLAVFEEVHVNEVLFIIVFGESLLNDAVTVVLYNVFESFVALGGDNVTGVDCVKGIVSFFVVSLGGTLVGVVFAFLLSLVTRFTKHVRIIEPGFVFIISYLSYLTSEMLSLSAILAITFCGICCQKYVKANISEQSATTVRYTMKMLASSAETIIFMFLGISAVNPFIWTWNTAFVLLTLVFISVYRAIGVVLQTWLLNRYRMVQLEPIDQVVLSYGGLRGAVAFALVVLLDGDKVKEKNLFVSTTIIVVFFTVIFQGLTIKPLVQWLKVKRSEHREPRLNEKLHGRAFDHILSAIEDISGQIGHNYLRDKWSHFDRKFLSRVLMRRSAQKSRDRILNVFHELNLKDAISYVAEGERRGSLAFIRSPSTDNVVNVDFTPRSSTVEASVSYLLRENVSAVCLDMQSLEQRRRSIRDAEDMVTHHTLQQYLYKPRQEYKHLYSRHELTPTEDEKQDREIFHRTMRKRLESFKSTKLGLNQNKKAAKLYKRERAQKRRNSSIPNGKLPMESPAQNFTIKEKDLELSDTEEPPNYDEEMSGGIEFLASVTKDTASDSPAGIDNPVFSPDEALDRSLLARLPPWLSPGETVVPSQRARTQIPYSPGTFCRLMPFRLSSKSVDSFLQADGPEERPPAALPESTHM
Test: Cell-based assay of NHE-3 activity (human NHE3 inhibition assay)
Design: expressed in transfected cells; host or cells: Opossum kidney (OK) cells (ATCC), electroporated
Conditions: OK cells with human NHE-3 gene, BCECF pH recovery, 0-30 μM test compound; read-out: Human NHE3 pIC50 (converted)
// reported IC50 for each item listed

Completed entries (count: 8):
Given the entry CN(C)[C@H]1Cc2c(Cl)cc(Cl)cc2[C@@H]1Oc1ccc(S(=O)(=O)NCCOCCOCCNC(=O)[C@H](O)[C@@H](O)C(=O)NCCOCCOCCNS(=O)(=O)c2ccc(O[C@H]3c4cc(Cl)cc(Cl)c4C[C@@H]3N(C)C)cc2)cc1 [Example 5] , report its measured IC50.
< 100 nM

Given the entry CN(C)[C@H]1Cc2c(Cl)cc(Cl)cc2[C@@H]1Oc1ccc(S(=O)(=O)NCCOCCOCCNC(=O)COCC(=O)NCCOCCOCCNS(=O)(=O)c2ccc(O[C@H]3c4cc(Cl)cc(Cl)c4C[C@@H]3N(C)C)cc2)cc1 [Example 9] , report its measured IC50.
< 100 nM

Given the entry N[C@@H]1CCCN([C@H]2Cc3c(F)cc(Cl)cc3[C@@H]2Oc2ccc(S(=O)(=O)NCCOCCOCCNC(=O)NCCCCNC(=O)NCCOCCOCCNS(=O)(=O)c3ccc(O[C@H]4c5cc(Cl)cc(F)c5C[C@@H]4N4CCC[C@@H](N)C4)cc3)cc2)C1 [Example 29] , report its measured IC50.
< 100 nM

Given the entry CN(C)[C@H]1Cc2ccccc2[C@@H]1Oc1ccc(S(=O)(=O)NCCOCCOCCNC(=O)NCCCCNC(=O)NCCOCCOCCNS(=O)(=O)c2ccc(O[C@H]3c4ccccc4C[C@@H]3N(C)C)cc2)cc1 [Example 20] , report its measured IC50.
< 100 nM

Given the entry O=C(NCCCCNC(=O)NCCOCCOCCNS(=O)(=O)c1ccc(O[C@H]2c3cc(Cl)ccc3C[C@@H]2N2CCCCC2)cc1)NCCOCCOCCNS(=O)(=O)c1ccc(O[C@H]2c3cc(Cl)ccc3C[C@@H]2N2CCCCC2)cc1 [Example 18] , report its measured IC50.
< 100 nM

Given the entry CN(C)[C@H]1Cc2c(F)cc(Cl)cc2[C@@H]1Oc1ccc(S(=O)(=O)NCCOCCOCCNC(=O)NCCCCNC(=O)NCCOCCOCCNS(=O)(=O)c2ccc(O[C@H]3c4cc(Cl)cc(F)c4C[C@@H]3N(C)C)cc2)cc1 [Example 25] , report its measured IC50.
< 100 nM

Given the entry O=C(NCCCCNC(=O)NCCOCCOCCNS(=O)(=O)c1ccc(O[C@H]2c3cc(Cl)cc(F)c3C[C@@H]2N2CC[C@@H](O)C2)cc1)NCCOCCOCCNS(=O)(=O)c1ccc(O[C@H]2c3cc(Cl)cc(F)c3C[C@@H]2N2CC[C@@H](O)C2)cc1 [Example 4] , report its measured IC50.
< 100 nM

Given the entry O=C(NCCCCNC(=O)NCCOCCOCCNS(=O)(=O)c1ccc(O[C@H]2c3ccccc3C[C@@H]2N2CC[C@@H](O)C2)cc1)NCCOCCOCCNS(=O)(=O)c1ccc(O[C@H]2c3ccccc3C[C@@H]2N2CC[C@@H](O)C2)cc1 [Example 31] , report its measured IC50.
< 100 nM

Field: next compound
Given the entry O=C(NCCOCCOCCOCCNS(=O)(=O)c1ccc(O[C@H]2c3ccccc3C[C@@H]2N2CCCCC2)cc1)c1cccc(C(=O)NCCOCCOCCOCCNS(=O)(=O)c2ccc(O[C@H]3c4ccccc4C[C@@H]3N3CCCCC3)cc2)c1 [Example 35] , report its measured IC50.
< 100 nM

Cited source for all entries: patent US10376481B2
